- Tested system: RIPK3 (Homo sapiens, UniProt Q9Y572)
- Sequence (Q9Y572 whole entry): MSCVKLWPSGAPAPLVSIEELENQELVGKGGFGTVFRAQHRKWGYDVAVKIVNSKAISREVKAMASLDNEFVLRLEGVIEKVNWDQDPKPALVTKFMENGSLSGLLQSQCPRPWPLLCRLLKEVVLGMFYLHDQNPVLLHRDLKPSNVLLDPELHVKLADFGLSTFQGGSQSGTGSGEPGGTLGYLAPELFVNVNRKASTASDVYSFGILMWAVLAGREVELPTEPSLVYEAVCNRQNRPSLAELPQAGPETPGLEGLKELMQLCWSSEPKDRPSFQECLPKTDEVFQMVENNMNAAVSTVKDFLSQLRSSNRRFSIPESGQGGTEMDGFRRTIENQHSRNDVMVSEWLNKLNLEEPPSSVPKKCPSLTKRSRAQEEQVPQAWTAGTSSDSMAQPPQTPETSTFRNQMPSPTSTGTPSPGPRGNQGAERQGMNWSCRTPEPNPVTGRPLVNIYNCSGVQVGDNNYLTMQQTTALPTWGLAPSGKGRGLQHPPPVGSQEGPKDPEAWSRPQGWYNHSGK
Measurement name: IC50
Kindly format the answer as number then unit.

The following molecules have reported results that may help.
{"Molecule": "O=C1CN(Cc2ccc(-c3ccc4nccc(Nc5ccc6scnc6c5)c4c3)c(F)c2)CCN1 [Compound 12]", "IC50": "1.67 nM"}
{"Molecule": "CC(C)(C)N1CCN(Cc2ccc(-c3ccc4nccc(Nc5ccc6scnc6c5)c4c3)c(F)c2)CC1 [Compound 36]", "IC50": "1.28 nM"}
{"Molecule": "CC(C)(C)N1CCN(Cc2ccc(-c3ccc4c(Nc5ccc6scnc6c5)ccnc4c3)c(F)c2)CC1 [Compound 37]", "IC50": "1.79 nM"}
{"Molecule": "Fc1cc(CN2CC3(CCOCC3)C2)ccc1-c1ccc2c(Nc3ccc4scnc4c3)ccnc2c1 [Compound 52]", "IC50": "0.57 nM"}
{"Molecule": "CN1CCN(Cc2ccc(-c3ccc4c(Nc5ccc6scnc6c5)ccnc4c3)cc2)CC1 [Compound 16]", "IC50": "0.51 nM"}
{"Molecule": "Fc1cc(CN2CCOCC2)ccc1-c1ccc2nccc(Nc3ccc4scnc4c3)c2c1 [Compound 22]", "IC50": "2.13 nM"}
{"Molecule": "CN1CCN(Cc2ccc(-c3ccc4nccc(Nc5ccc6scnc6c5)c4c3)c(F)c2)CC1 [Compound 11]", "IC50": "1.29 nM"}

Kindly consider the entry below.
Would you kindly share the measured IC50 for OCCN1CCN(Cc2ccc(-c3ccc4nccc(Nc5ccc6scnc6c5)c4c3)c(F)c2)CC1 [Compound 17] ?
0.95 nM

* * *

Items are presented alongside their recorded IC50.
- Tested system: UniProt Q9Y572
Report as a plain number; the unit nM is understood.

{"Query smiles": "CN1CCN(Cc2ccc(-c3ccc4nccc(Nc5ccc(Cl)c(Cl)c5)c4c3)c(F)c2)CC1", "Measurement name": "IC50", "Unit name": "nM", "Reported result": 2.75}
{"Query smiles": "CN1CCN(C(=O)c2ccc(-c3ccc4nccc(Nc5ccc6scnc6c5)c4c3)cc2)CC1", "Measurement name": "IC50", "Unit name": "nM", "Reported result": 3.97}
{"Query smiles": "CN1CCN(Cc2ccc(-c3ccc4nccc(Nc5ccc6scnc6c5)c4c3)c(F)c2)CC1=O", "Measurement name": "IC50", "Unit name": "nM", "Reported result": 1.72}
{"Query smiles": "Fc1cc(CN2CC3(CCOCC3)C2)ccc1-c1ccc2nccc(Nc3ccc4scnc4c3)c2c1", "Measurement name": "IC50", "Unit name": "nM", "Reported result": 1.88}
{"Query smiles": "Fc1cc(CN2CCCCC2)ccc1-c1ccc2c(Nc3ccc4scnc4c3)ccnc2c1", "Measurement name": "IC50", "Unit name": "nM", "Reported result": 0.162}

Would you kindly share the measured IC50 for O=C(c1ccc(-c2ccc3c(Nc4ccc5scnc5c4)ccnc3c2)c(F)c1)N1CCCCC1 ?
0.029

And CN1CCN(Cc2ccc(-c3ccc4nccc(Nc5ccc6scnc6c5)c4c3)cc2F)CC1 ?
1.51
